System Tested: FMDV 3Cpro (Foot-and-mouth disease virus A)
Procedure Details: cell-based
Measurement Setup: Cell-based assay (EC50)
Measured Metric: log10(EC50) (log10 of the value in µM)
Would you kindly interpret these values as log10 of EC50 expressed in µM?

// below: answered compounds
Compound	System Tested	Measured Metric	Endpoint Result
CC(C)C[C@H](NC(=O)OCC(C)(C)Oc1cccc(F)c1)C(=O)N[C@H](C=O)C[C@@H]1CCNC1=O [Compound D16c]	FMDV 3Cpro (Foot-and-mouth disease virus A)	log10(EC50)	0.69
CC(C)C[C@H](NC(=O)OCC(C)(C)Oc1ccc(F)cc1)C(=O)N[C@@H](C[C@@H]1CCNC1=O)C(O)S(=O)(=O)O (stereo partly drawn) [Compound D15d]	FMDV 3Cpro (Foot-and-mouth disease virus A)	log10(EC50)	0.77
[2H]C([2H])(OC(=O)N[C@@H](CC(C)C)C(=O)N[C@H](C=O)C[C@@H]1CCNC1=O)C(C)(C)Oc1ccc(Cl)cc1 [Compound D12c]	FMDV 3Cpro (Foot-and-mouth disease virus A)	log10(EC50)	-0.46
COc1cccc([C@@H]2C[C@H]2COC(=O)N[C@@H](CC(C)C)C(=O)N[C@H](C=O)C[C@H]2CCNC2=O)c1	FMDV 3Cpro (Foot-and-mouth disease virus A)	log10(EC50)	0.47

Now consider the entry below.
Query :: Tell me measured log10(EC50) for CC(C)C[C@H](NC(=O)OC[C@@H]1C[C@H]1CC1CCCCC1)C(=O)N[C@@H](C[C@H]1CCNC1=O)C(O)S(=O)(=O)O (stereo partly drawn) [Compound C16d] please.
Result :: 0.08

* * *

System Tested: FMDV 3Cpro (Foot-and-mouth disease virus A)
Procedure Details: biochemical
Measurement Setup: FRET assay (IC50)
pIC50: −log10 of the molar value.
Please note: Criterion met applies when pIC50 is 6 or greater, and Criterion not met applies otherwise.

Reference set, count: 2
Compound	Assigned Category
COc1ccccc1[C@@H]1C[C@@H]1COC(=O)N[C@@H](CC(C)C)C(=O)N[C@H](C=O)C[C@H]1CCNC1=O [Compound C12c]	Criterion met
CC(C)C[C@H](NC(=O)OCC(C)(C)Sc1cccc(F)c1)C(=O)N[C@H](C=O)C[C@@H]1CCNC1=O	Criterion not met

Query :: # check: pIC50 of CC(C)C[C@H](NC(=O)OCc1ccccc1)C(=O)N[C@@H](C[C@@H]1CCNC1=O)C(=O)C(=O)NC1CC1 is greater than or equal to 6
Result :: Criterion not met

Query :: # check: pIC50 of CCC[C@@H]1C[C@H]1COC(=O)N[C@@H](CC(C)C)C(=O)N[C@H](C=O)C[C@H]1CCNC1=O [Compound C13c] is greater than or equal to 6
Result :: Criterion not met

* * *

Measured pIC50, listed per entry.
System Tested: FMDV 3Cpro (Foot-and-mouth disease virus A, UniProt A0A097I315)
Procedure Details: biochemical
Measurement Setup: FRET assay (IC50)
Lab note: report pIC50 as minus log10 of the concentration in molar units, number only.

// below: answered molecules
Molecule	System Tested	pIC50
CC(C)C[C@H](NC(=O)OC[C@@H]1C[C@H]1CC1CCCCC1)C(=O)N[C@H](C=O)C[C@H]1CCNC1=O [Compound C16c]	FMDV 3Cpro (Foot-and-mouth disease virus A, UniProt A0A097I315)	6.44
CC(C)C[C@H](NC(=O)OCc1ccccc1)C(=O)N[C@H](C=O)C[C@@H]1CCNC1=O	FMDV 3Cpro (Foot-and-mouth disease virus A, UniProt A0A097I315)	5.64
CC(C)C[C@H](NC(=O)OC[C@@H]1C[C@H]1CC1CCCCC1)C(=O)N[C@@H](C[C@H]1CCNC1=O)C(O)S(=O)(=O)O (stereo partly shown) [Compound C16d]	FMDV 3Cpro (Foot-and-mouth disease virus A, UniProt A0A097I315)	6.48

Query :: Tell me measured pIC50 for CC(C)C[C@H](NC(=O)OCc1ccccc1)C(=O)N[C@@H](C[C@@H]1CCNC1=O)C(=O)C(=O)NC1CCCCC1 please.
Result :: 5.55

Query :: Tell me measured pIC50 for CC(C)C[C@H](NC(=O)OC[C@@H]1C[C@H]1c1cccc(Cl)c1)C(=O)N[C@H](C=O)C[C@H]1CCNC1=O please.
Result :: 6.10

Query :: Tell me measured pIC50 for CCOC(=O)CNC(=O)C(=O)[C@H](C[C@@H]1CCNC1=O)NC(=O)[C@H](CC(C)C)NC(=O)OCc1ccccc1 please.
Result :: 5.66

Query :: Tell me measured pIC50 for CC(C)C[C@H](NC(=O)OC[C@@H]1C[C@H]1C1CCCCC1)C(=O)N[C@H](C=O)C[C@H]1CCNC1=O [Compound C15c] please.
Result :: 6.42

Query :: Tell me measured pIC50 for CC(C)C[C@H](NC(=O)OCC(C)(C)Oc1ccc(F)cc1)C(=O)N[C@H](C=O)C[C@@H]1CCNC1=O [Compound D15c] please.
Result :: 6.35

Query :: Tell me measured pIC50 for CC(C)C[C@H](NC(=O)OCC(C)(C)Oc1ccc(Cl)cc1)C(=O)N[C@@H](C[C@@H]1CCNC1=O)C(O)S(=O)(=O)O (stereo partly shown) [Compound D11d] please.
Result :: 6.31

Query :: Tell me measured pIC50 for CC(C)C[C@H](NC(=O)OCC(C)(C)Oc1ccc(F)cc1)C(=O)N[C@@H](C[C@@H]1CCNC1=O)C(O)S(=O)(=O)O (stereo partly shown) [Compound D15d] please.
Result :: 6.26

Query :: Tell me measured pIC50 for CC(C)C[C@H](NC(=O)OCC(C)(C)Sc1ccccc1)C(=O)N[C@H](C=O)C[C@@H]1CCNC1=O please.
Result :: 5.92

Query :: Tell me measured pIC50 for [2H]C([2H])(OC(=O)N[C@@H](CC(C)C)C(=O)N[C@H](C=O)C[C@@H]1CCNC1=O)C(C)(C)Oc1ccc(Cl)cc1 [Compound D12c] please.
Result :: 6.85

Query :: Tell me measured pIC50 for COc1ccc([C@@H]2C[C@H]2COC(=O)N[C@@H](CC(C)C)C(=O)N[C@@H](C[C@H]2CCNC2=O)C(O)S(=O)(=O)O)cc1 (stereo partly shown) [Compound C10d] please.
Result :: 5.98
